Biological target: T1, oligomeric amyloid-β 1–42 (UniProt P05067 672-713)
T1 construct: amyloid-beta 1-42, cut product of the amyloid precursor protein (APP); numbers count on: the Aβ peptide; Heterogeneous mixture of low-n and high-n oligomers, prepared without separation of monomeric Aβ; also called oAβ_(1–42); oAβ; source: synthetic peptide, bought: AnaSpec (AS-20276); oligomers made by incubation at 22 °C for 16 h, then 4 °C for 24 h, supernatant after 16,000×g
Assay: ELISA; solid phase binding assay: 96-well plate coated with 100 nM oAβ1-42 in PBS overnight at 4 °C, blocked with 4% BSA; purified Fc or sTREM2-Fc proteins in PBST with 0.5% BSA, 30 min at 37 °C; detected with biotinylated anti-Fc antibody, avidin-HRP, TMB, read at 620 nm
Settings: both partners purified

BINDER	binding result
sTREM2-Fc fragment carrying residues 1–131 (Fc fusion, human, UniProt Q9NZC2 19-131, looked up, signal peptide in the construct) HNTTVFQGVAGQSLQVSCPYDSMKHWGRRKAWCRQLGEKGPCQRVVSTHNLWLLSFLRRWNGSTAITDDTLGGTLTITLRNLQPHDAGLYQCQSLHGSEADTLRKVLVEVLAD	binds
sTREM2-Fc fragment carrying residues 1–111 (Fc fusion, human, UniProt Q9NZC2 19-111, looked up, signal peptide in the construct) HNTTVFQGVAGQSLQVSCPYDSMKHWGRRKAWCRQLGEKGPCQRVVSTHNLWLLSFLRRWNGSTAITDDTLGGTLTITLRNLQPHDAGLYQCQ	binds
sTREM2-Fc fragment carrying residues 1–91 (Fc fusion, human, UniProt Q9NZC2 19-91, looked up, signal peptide in the construct; human TREM2, C-terminally truncated extracellular domain, residues 1-91) HNTTVFQGVAGQSLQVSCPYDSMKHWGRRKAWCRQLGEKGPCQRVVSTHNLWLLSFLRRWNGSTAITDDTLGG	binds
